Cited source for all entries: patent US20200199204A1

subject_of_test: HIV-1 Env of C1080.c3 (HIV-1)
method_description: cell-based or functional assay
readout_type: neutralization IC50

Query :: Returns the measured neutralization IC50 for the input binder. Input: CAP256-VRC26.10 (antibody, V domains shown) VH: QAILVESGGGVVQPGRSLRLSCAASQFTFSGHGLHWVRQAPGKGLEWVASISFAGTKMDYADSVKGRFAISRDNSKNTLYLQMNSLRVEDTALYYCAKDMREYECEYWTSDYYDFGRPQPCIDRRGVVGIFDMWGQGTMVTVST VL: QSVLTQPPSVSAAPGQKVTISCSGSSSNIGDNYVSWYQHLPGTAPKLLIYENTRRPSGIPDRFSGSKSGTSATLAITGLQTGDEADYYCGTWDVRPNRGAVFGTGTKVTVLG
Result :: > 50 µg/mL

Query :: Value lookup for neutralization IC50; key = CAP256-VRC26.06 (antibody, V domains shown) VH: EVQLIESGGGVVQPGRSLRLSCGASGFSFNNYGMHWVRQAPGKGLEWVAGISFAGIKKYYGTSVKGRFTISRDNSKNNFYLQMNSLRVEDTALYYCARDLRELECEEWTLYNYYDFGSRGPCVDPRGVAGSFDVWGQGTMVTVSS VL: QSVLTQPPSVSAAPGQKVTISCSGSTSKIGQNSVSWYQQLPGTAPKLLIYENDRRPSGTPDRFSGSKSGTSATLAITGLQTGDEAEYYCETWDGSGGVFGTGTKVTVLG
Result :: > 50 µg/mL

Query :: Name the reported neutralization IC50 value associated with the binder CAP256-VRC26.07 (antibody, V domains shown) VH: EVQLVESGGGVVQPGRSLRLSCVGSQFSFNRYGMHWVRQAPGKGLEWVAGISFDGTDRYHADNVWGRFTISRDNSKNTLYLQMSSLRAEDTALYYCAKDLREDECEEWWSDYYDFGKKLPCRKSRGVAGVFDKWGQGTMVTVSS VL: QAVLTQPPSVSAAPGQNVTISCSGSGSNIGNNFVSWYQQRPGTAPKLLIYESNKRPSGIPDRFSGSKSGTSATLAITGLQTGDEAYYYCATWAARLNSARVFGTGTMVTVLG
Result :: > 50 µg/mL
